Assay: Cmax in New Zealand rabbit meningitis model at 25 mg/kg, iv
Assay type: ADME, organism-based, Oryctolagus cuniculus
Set-up: dose 25 mg/kg, route intravenous
Details: in vivo

{"columns": ["molecule_smiles", "unit_of_measurement", "Cmax"],
 "data": [
  ["CO[C@H]1/C=C/O[C@@]2(C)Oc3c(C)c(O)c4c(O)c(c(/C=N/N5CCN(C)CC5)c(O)c4c3C2=O)NC(=O)/C(C)=C\\C=C\\[C@H](C)[C@H](O)[C@@H](C)[C@@H](O)[C@@H](C)[C@H](OC(C)=O)[C@@H]1C", "ng/mL", 16600]
]}

----------
Experiment: Half life in New Zealand rabbit meningitis model at 30 mg/kg, im
Assay type: ADME, organism-based, Oryctolagus cuniculus
Parameters: dose 30 mg/kg, route intramuscular
Conditions: in vivo

{"columns": ["molecule_smiles", "unit_of_measurement", "half-life"],
 "data": [
  ["CC1(C)[C@H](C(=O)O)N2C(=O)C[C@H]2S1(=O)=O", "min", 32.4]
]}

----------
Assay: AUC in New Zealand rabbit meningitis model at 30 mg/kg, im
Format: ADME, organism-based, Oryctolagus cuniculus
Parameters: dose 30 mg/kg, route intramuscular
Conditions: in vivo
measurement_kind: AUC (ng·h/mL)

{"columns": ["compound", "quantitative_readout"],
 "data": [
  ["CC1(C)[C@H](C(=O)O)N2C(=O)C[C@H]2S1(=O)=O [SULBACTAM]", 57100]
]}

----------
Assay: Half life in C57BL/6 mouse pneumonia model at 30 mg/kg, im
Type: ADME, organism-based
Design: dose 30 mg/kg, route intramuscular
Conditions: in vivo
measurement_kind: half-life (min)

{"columns": ["compound", "quantitative_readout"],
 "data": [
  ["C[C@@H](O)[C@H]1C(=O)N2C(C(=O)O)=C(SCCN=CN)C[C@H]12 [IMIPENEM ANHYDROUS]", 15.6]
]}

----------
Experiment: Cmax in C57BL/6 mouse pneumonia model at 25 mg/kg, ip
Assay type: ADME, organism-based
Design: dose 25 mg/kg, route intraperitoneal
Conditions: in vivo

{"columns": ["molecule_smiles", "unit_of_measurement", "Cmax"],
 "data": [
  ["CO[C@H]1/C=C/O[C@@]2(C)Oc3c(C)c(O)c4c(O)c(c(/C=N/N5CCN(C)CC5)c(O)c4c3C2=O)NC(=O)/C(C)=C\\C=C\\[C@H](C)[C@H](O)[C@@H](C)[C@@H](O)[C@@H](C)[C@H](OC(C)=O)[C@@H]1C", "ng/mL", 15800]
]}

----------
Test: in vivo
Conditions: New Zealand, rabbit, im, 120 mg/kg
Description: Cmax in New Zealand rabbit meningitis model at 120 mg/kg, im
measurement_kind: Cmax

{"columns": ["molecule", "measurement_kind", "result"],
 "data": [
  ["C[C@@H](O)[C@H]1C(=O)N2C(C(=O)O)=C(SCCN=CN)C[C@H]12 [IMIPENEM ANHYDROUS]", "Cmax", "25400 ng/mL"]
]}

----------
Experiment: AUC in C57BL/6 mouse pneumonia model at 60 mg/kg, im
Type: ADME, organism-based
Set-up: dose 60 mg/kg, route intramuscular
Details: in vivo

{"columns": ["molecule_smiles", "AUC [ng·h/mL]"],
 "data": [
  ["CC1(C)[C@H](C(=O)O)N2C(=O)C[C@H]2S1(=O)=O", 87500]
]}

The reported numbers originate from ChEMBL document CHEMBL1240392.
